From: ChEMBL document CHEMBL5058577

Test system: U2OS
Experiment: Multiplex assay against U2OS
Assay type: toxicity, cell-based
Conditions: human, 24 h, 10 µM, compound concentration 10 uM, replicate 1
For each entry below, report its Population Membrane Permeable-Phenotype (%) value.
Report the figure in % without appending any unit label.

[Q] What Population Membrane Permeable-Phenotype (%) value was documented for this compound, `Cc1noc(-c2ccc(-c3ccc(CC(=O)O)cc3)cc2)c1NC(=O)O[C@H](C)c1ccccc1Cl` ?
[A] 11

[Q] Next record, please: CCCCC1=NC2(CCCC2)C(=O)N1Cc1ccc(-c2ccccc2-c2nnn[nH]2)cc1 [IRBESARTAN]
[A] 6

[Q] Next record, please: `CCc1cc2cc(NS(=O)(=O)c3ccc(C#N)cc3)ccc2n(CC)c1=O`
[A] 4

[Q] Next record, please: `Cc1cnc(-c2cc(N3CCN(C(=O)CCS(C)(=O)=O)CC3)ncc2Cl)c(C)c1`
[A] 4

[Q] Next record, please: `CCCCC(=O)N(Cc1ccc(-c2ccccc2-c2nnn[nH]2)cc1)[C@H](C(=O)O)C(C)C`
[A] 3

[Q] Next record, please: `N#Cc1cc(F)cc(-c2nc(-c3ccc(F)cn3)no2)c1`
[A] 7

[Q] Next record, please: `CCCOc1ccc2[nH]cc(C3=CCNCC3)c2n1.Cl`
[A] 5

[Q] Next record, please: Cc1c(CC(=O)O)c2cccnc2n1Cc1ccc(S(C)(=O)=O)cc1C(F)(F)F [FEVIPIPRANT]
[A] 5

[Q] Next record, please: `C[C@H](N)COC(=O)[C@@H](CCCCN)NC(=O)Cc1c(-c2ccc3ccccc3c2)[nH]c2c1ccc1ccccc12`
[A] 5

----------
For each entry below, report its Population Healthy Nuclei (%) value.
System: U2OS
Experiment: Multiplex assay against U2OS
Assay type: toxicity, cell-based
Conditions: human, 24 h, 10 µM, compound concentration 10 uM, replicate 1
Report the figure in % without appending any unit label.

[Q] What Population Healthy Nuclei (%) value was documented for this molecule, `CCCOc1ccc2[nH]cc(C3=CCNCC3)c2n1.Cl` ?
[A] 66

[Q] Next record, please: `Cc1cccc(NC(=O)CN2CCC(c3ccccn3)CC2)c1.Cl.Cl`
[A] 55

[Q] Next record, please: `N#Cc1cc(F)cc(-c2nc(-c3ccc(F)cn3)no2)c1`
[A] 60

[Q] Next record, please: `COc1ccccc1N1CCN(C[C@@H](C(=O)NC(C)(C)C)c2ccccc2)CC1.Cl.Cl`
[A] 42

[Q] Next record, please: `O=C1[C@H](Cc2ccc(O)cc2)N2C(=O)CCN(C(=O)NCc3ccccc3)[C@H]2CN1Cc1cccc2ccccc12`
[A] 42

----------
For each entry below, report its Population Membrane Permeable-Phenotype (%) value.
System: U2OS
Test: Multiplex assay against U2OS
Format: toxicity, cell-based
Conditions: human, 48 h, 10 µM, compound concentration 10 uM, replicate 1
Report the figure in % without appending any unit label.

[Q] What Population Membrane Permeable-Phenotype (%) value was documented for this molecule, `CC(/C=C1\SC(=S)N(CCCC(=O)Nc2ccc(C(=O)O)c(O)c2)C1=O)=C\c1ccccc1` ?
[A] 6

[Q] Next record, please: `O=C(CCCc1ccccc1)Nc1nc2ccccc2c(=O)s1`
[A] 5

[Q] Next record, please: Cc1sc2c(c1C)C(c1ccc(Cl)cc1)=N[C@@H](CC(=O)NCCCCCCCCNC(=O)COc1cccc3c1C(=O)N(C1CCC(=O)NC1=O)C3=O)c1nnc(C)n1-2 (some centres undefined)
[A] 9

[Q] Next record, please: `COc1ccccc1N1CCN(C[C@@H](C(=O)NC(C)(C)C)c2ccccc2)CC1.Cl.Cl`
[A] 28

[Q] Next record, please: `CN1CCN(c2cc(-c3ccccc3)nc(N)n2)CC1`
[A] 5

[Q] Next record, please: `O=C1[C@H](Cc2ccc(O)cc2)N2C(=O)CCN(C(=O)NCc3ccccc3)[C@H]2CN1Cc1cccc2ccccc12`
[A] 28

[Q] Next record, please: CC[C@@H](C)Nc1nc(C)nc2c(-c3ccc(OC)nc3C)c(C)nn12 [PEXACERFONT]
[A] 4

[Q] Next record, please: `CCCOc1ccc2[nH]cc(C3=CCNCC3)c2n1.Cl`
[A] 5

[Q] Next record, please: CC(C)(C)c1cc(NC(=O)Nc2ccc(-c3cn4c(n3)sc3cc(OCCN5CCOCC5)ccc34)cc2)no1 [QUIZARTINIB]
[A] 41

[Q] Next record, please: COC[C@@H](c1ccc(C(F)(F)F)cc1)N1CCN(C2(C)CCN(C(=O)c3c(C)ncnc3C)CC2)C[C@@H]1C.O=C(O)/C=C\C(=O)O [VICRIVIROC MALEATE]
[A] 3

[Q] Next record, please: CN[C@@H](C)C(=O)N[C@H](C(=O)N1CCC[C@H]1C(=O)Nc1snnc1-c1ccccc1)C1CCCCC1 [GDC-0152]
[A] 39

[Q] Next record, please: Br.CS(=O)(=O)Nc1c(O)ccc2c1CCCC2C1=NCCN1 (centres undefined)
[A] 5

[Q] Next record, please: CC(=O)Nc1cccc2c1c(Sc1ccc(Cl)cc1)c(C)n2CC(=O)O [AZD1981]
[A] 7

[Q] Next record, please: `Cc1onc(-c2ccccc2Cl)c1C(=O)N(C)c1ccc(Cl)cc1`
[A] 10
